target: HIV-1 reverse transcriptase (HIV-1 (BH10), UniProt P03366;P03366 P03366:600-1159,P03366:600-1039); experiment: inhibition; primed ribosomal RNA template; duplicate 0.36 uM; conditions: intramolecular G4 (G-octet)
pIC50: −log10 of the molar value.
MEASUREMENT_LABEL: pIC50

- GTGGTGGGTGGGTGGGT (ssDNA, PS at first and last internucleoside linkages, 3'-OH) [T30177 (AR177, Zintevir)]: 5.92
